Here, each record is paired with measured Kd data.
Target: T1, His-tagged cynomolgus monkey CD38 (ACRO Biosystems cat #CD8-05223) (cynomolgus monkey, UniProt Q5VAN0 43-301)
T1 construct: bought recombinant protein with His tag
Assay: SPR, captured scFv-Fc, His-CD38 analyte;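 note: SPR on a Carterra LSA, scFv-Fc captured by anti-human Fc on HC30M chip, His-tagged CD38 (human, mouse, cynomolgus) flowed as analyte in eight 1:2 steps from 400 nM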
Just the number plus its unit, please.

binder: 40566p1.F8 (scFv, V domains shown, tested as scFv-Fc supernatant) VH: DVQLVESGGGVVRPGESLRLSCAASGFTFDNYDMTWVRQAPGEGLEWVSFISSRGTFAYYTDSVKGRFTISRDNSKNTLYLQMNSLRAEDTAIYYCTKDSGEYYFFDYWGLGTLVTVSS VL: EIVMTQSPATLSVSPGERATFSCRASQSVNSKLAWYQQKPGQAPRLLIYGASRRATGIPDRFSGSGSGTEFTLTISSLQSEDFAVYYCQQYYDWPPLTFGGGTKVEIK
Kd: 4.82 nM

IN: Can you look up the measured Kd of 40769p1.1.A4 (scFv, V domains shown, tested as scFv-Fc supernatant) VH: EVQLLESGGGLVQPGGSLRLSCTASGITFSRFNMFWVRQAPGKGLEFVASIRDDGSWTYYADSVKGRFTISRDNSKNTLYLQMNSLRAEDTAVYYCAKDYNSKDFIYHYVMDVWGQGTTVTVSS VL: QSVLTQPPSASGTPGQRVTISCSGRNSNIGNNVVNWYQQLPGTAPKLLIYKDDQRPSGVPDRFSGSKSGTSASLAISGLQSEDEADYYCSTWDDSLNGWVFGGGTKLTVL for me?
OUT: 0.106 nM
